This collection of values is drawn from patent US20220106304A1.

Reported Met Stab % (60 mins HLM/MLM) values for a set of compounds
ASSAY_NOTES: Liver microsome metabolic stability, MLM
Assay type: in vitro ADME
PARTICULARS: MLM (single value or second of two), percent remaining at 60 min, 1 μM compound, 0.25 mg/mL protein, 1 mM NADPH
Give your result in % as a bare value.

Some solved cases for reference:
# COMPOUND, Met Stab % (60 mins HLM/MLM), %
records = [
    ("Clc1cc2cc(-c3csc(-c4ccc[nH]4)n3)oc2cc1Cl", 17),
    ("Clc1ccc2cc(-c3csc(C4CCCO4)n3)oc2c1 (centres unmarked)", 14),
    ("FC(F)(F)c1ccc2cc(-c3csc(-c4ccoc4)n3)oc2c1", 1),
    ("Clc1ccc2cc(-c3cccc(-c4ccc[nH]4)c3)oc2c1", 2),
]

Alright, here's another compound for you.
Look up Met Stab % (60 mins HLM/MLM): c1ccc2c(c1)CCC2c1cnn(-c2nc3ccccc3s2)c1 (centres unmarked) 5

###

ASSAY_NOTES: Liver microsome metabolic stability, MLM
Assay type: in vitro ADME
PARTICULARS: MLM (single value or second of two), percent remaining at 60 min, 1 μM compound, 0.25 mg/mL protein, 1 mM NADPH
READOUT_NAME: Met Stab % (60 mins HLM/MLM) (%)
Your answer should be a plain number; it is taken to be in %.

Previously resolved entries follow.
# MOLECULE, Met Stab % (60 mins HLM/MLM) (%)
data = [
    ("Cc1c(-c2ccc(-c3ccccc3)o2)oc2ccccc12 [VPC-18-74]", 2),
    ("Cn1c(-c2ccc(-c3cccc(C#N)c3)o2)nc2ccccc21 [VPC-18-63]", 0),
    ("Clc1ccc2cc(-c3cncc(-c4ccc[nH]4)n3)oc2c1 [VPC-18-130]", 1),
    ("FC(F)(F)c1ccc2cc(-c3csc(-c4cc[nH]c4)n3)oc2c1 [VPC-18-111]", 38),
    ("Clc1ccc2cc(-c3csc(-c4ccco4)n3)oc2c1 [VPC-18-66]", 31),
    ("c1ccc(-c2nc(-c3cc4ccccc4o3)cs2)cc1 [VPC-18-33, 4-(Benzofuran-2-yl)-2-phenylthiazole]", 1),
]

GET /values?readout=Met Stab % (60 mins HLM/MLM)&item= FC(F)(F)c1ccc2cc(-c3csc(NCC4CC4)n3)oc2c1 [VPC-18-86] 5

Thanks! And Clc1ccc2nc(-c3csc(-c4ccco4)n3)oc2c1 [VPC-18-107] ? 7

Field entry: Clc1ccc2cc(-c3csc(-c4nccs4)n3)oc2c1 [VPC-18-165] 6

Next molecule up: Cn1c(-c2csc(-c3ccccc3F)n2)nc2ccc(F)cc21 [VPC-18-45] 22

###

TEST_TARGET: BRN2 (Homo sapiens)
Sequence (P20265 whole entry): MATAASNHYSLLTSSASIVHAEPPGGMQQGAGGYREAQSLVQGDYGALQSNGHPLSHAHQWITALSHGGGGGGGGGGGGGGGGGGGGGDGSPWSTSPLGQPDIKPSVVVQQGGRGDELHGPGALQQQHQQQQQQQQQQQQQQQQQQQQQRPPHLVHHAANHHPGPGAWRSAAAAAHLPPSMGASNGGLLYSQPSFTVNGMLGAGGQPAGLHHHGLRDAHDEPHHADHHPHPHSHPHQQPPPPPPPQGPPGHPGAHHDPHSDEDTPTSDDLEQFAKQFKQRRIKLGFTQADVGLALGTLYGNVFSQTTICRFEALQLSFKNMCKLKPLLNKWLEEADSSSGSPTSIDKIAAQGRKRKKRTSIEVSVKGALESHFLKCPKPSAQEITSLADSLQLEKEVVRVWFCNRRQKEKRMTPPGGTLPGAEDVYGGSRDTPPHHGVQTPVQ
ASSAY_NOTES: cell-based
PARTICULARS: read-out: % BRN2 Inhibition (30 μM), 30 μM compound, 24 hours, 42D^ENZR cells stably expressing BRN2-luciferase reporter; negative = activation
Assign classes using reported inhibition at 30 µM values and the ranges Low (below -80%), Mid (-80% to below 50%), High (50% or more), please.

# COMPOUND, LABEL
rows = [
    ("Cn1c(-c2csc(-c3ccccc3)n2)nc2ccc(Cl)cc21 [VPC-18-37]", "Mid"),
    ("FC(F)(F)c1ccc2cc(-c3csc(-c4cc[nH]c4)n3)oc2c1 [VPC-18-111]", "High"),
    ("O=[N+]([O-])c1ccc2nc(-c3ccc(-c4ccc(Br)cc4Cl)o3)[nH]c2c1 [VPC-18-40]", "Low"),
]

Assign a bin to Cn1c(-c2csc(-c3ccccc3F)n2)nc2ccc(F)cc21 [VPC-18-45] Mid

And the next one, NS(=O)(=O)c1ccc2nc(-c3csc(-c4ccccc4F)n3)[nH]c2c1 [VPC-18-46] ? Low

Repeat for the following compound: FC(F)(F)c1ccc2nc(-c3ccc(-c4ccccc4)o3)[nH]c2c1 [VPC-18-87] High

Entry Fc1ccc(-c2nc(-c3nc4ccc(C(F)(F)F)cc4o3)cs2)o1 [VPC-18-93] please Mid

Consider next the compound O=[N+]([O-])c1ccc(-c2nc(-c3cc4ccccc4o3)cs2)cc1 [VPC-18-44] in the same way. Low

One more compound: Cn1c(-c2ccc(C3=CCNCC3)o2)nc2ccccc21 [VPC-18-67] Mid
